- Species: Rattus norvegicus
- experiment notes: Inhibition of rat intestinal alpha-glucosidase at 100 uM
Would you kindly list inhibition for each of these compounds?
// units = %; emit number, no label

Look up inhibition: CCOC(=O)[C@H]1[C@H](C2O[C@@H]3OC(C)(C)O[C@@H]3[C@H]2OCc2ccccc2)[C@@H](C(=O)O)N[C@H]1c1cccc([N+](=O)[O-])c1 (single isomer, unassigned)
10.3

Look up inhibition: CCOC(=O)[C@H]1[C@H](C2O[C@@H]3OC(C)(C)O[C@@H]3[C@H]2OCc2ccccc2)[C@@H](C(=O)OCC)N[C@H]1c1cccnc1 (single isomer, unassigned)
29.3

Look up inhibition: CCOC(=O)[C@H]1[C@H]([C@@H]2O[C@@H]3OC(C)(C)O[C@@H]3[C@H]2OCc2ccccc2)[C@@H](C(=O)OCC)N[C@H]1c1cccc([N+](=O)[O-])c1
82.7

Look up inhibition: CCOC(=O)[C@H]1[C@H](C2O[C@@H]3OC(C)(C)O[C@@H]3[C@H]2OCc2ccccc2)[C@@H](C(=O)O)N[C@H]1c1ccc(Br)cc1 (single isomer, unassigned)
8.1

Look up inhibition: CCOC(=O)[C@H]1[C@H](C2O[C@@H]3OC(C)(C)O[C@@H]3[C@H]2OCc2ccccc2)[C@@H](C(=O)O)N[C@H]1c1cc(Cl)ccc1Cl (single isomer, unassigned)
10.5

Look up inhibition: CCOC(=O)[C@H]1[C@H](C2O[C@@H]3OC(C)(C)O[C@@H]3[C@H]2OCc2ccccc2)[C@@H](C(=O)O)N[C@H]1c1cccc(Cl)c1 (single isomer, unassigned)
24.1

Look up inhibition: CCOC(=O)[C@H]1[C@H](C2O[C@@H]3OC(C)(C)O[C@@H]3[C@H]2OC)[C@@H](C(=O)OCC)N[C@H]1c1ccc(Br)cc1 (single isomer, unassigned)
26.8

Look up inhibition: CCOC(=O)[C@H]1[C@H](C2O[C@@H]3OC(C)(C)O[C@@H]3[C@H]2OCc2ccccc2)[C@@H](C(=O)OCC)N[C@H]1c1ccc(F)cc1 (single isomer, unassigned)
43.1
